Test system: IL-6 (mouse)
Assay: Antiinflammatory activity in C57BL/6 mouse BMDCs assessed as inhibition of LPS-stimulated IL-6 production treated 1 hr before LPS challenge measured 16 hrs post stimulation by ELISA
Details: bmdc
Recorded Metric: IC50

Solved entries (count: 3):
{"Compound": "O=C(/C=C/c1ccc(O)cc1)C[C@@H](O)CCc1ccc(O)cc1", "Tested Target": "IL-6 (mouse)", "IC50": "> 50 µM"}
{"Compound": "COc1cc(O)c2c(=O)c(O[C@H]3O[C@H](COC(=O)CC(C)(O)CC(=O)OC[C@H]4O[C@@H](Oc5c(OC)cc(/C=C/CO)cc5OC)[C@H](O)[C@@H](O)[C@@H]4O)[C@@H](O)[C@H](O)[C@H]3O)c(-c3ccc(O[C@@H]4O[C@H](CO)[C@@H](O)[C@H](O)[C@H]4O)c(OC)c3)oc2c1 (some centres not stated)", "Tested Target": "IL-6 (mouse)", "IC50": "> 50 µM"}
{"Compound": "CC1(C)CC[C@]2(C(=O)O)CC[C@]3(C)C(=CC[C@@H]4[C@@]5(C)CC[C@H](O)C(C)(C)[C@@H]5CC[C@]43C)[C@@H]2C1 [OLEANOLIC_ACID]", "Tested Target": "IL-6 (mouse)", "IC50": "> 50 µM"}

Record CC1(C)CC[C@]2(CO)CC[C@]3(C)C(=CC[C@@H]4[C@@]5(C)CC[C@H](O)C(C)(C)[C@@H]5CC[C@]43C)[C@@H]2C1 [ERYTHRODIOL] : what is its IC50 with IL-6 (mouse)?
> 50 µM

Record `COc1cc(O)c2c(=O)cc(-c3ccc(O[C@@H]4O[C@H](CO)[C@@H](O)[C@H](O)[C@H]4O[C@@H]4OC[C@](O)(CO)[C@H]4O)c(OC)c3)oc2c1` : what is its IC50 with IL-6 (mouse)?
> 50 µM

Record C=CC(C)(O)CC/C=C(\C)CCC=C(C)C (configuration not stated) [NEROLIDOL] : what is its IC50 with IL-6 (mouse)?
20.2 µM

Record `COc1cc([C@H]2OC[C@H]3[C@@H]2CO[C@@H]3c2cc(OC)c(O)c(OC)c2)ccc1O` : what is its IC50 with IL-6 (mouse)?
20.9 µM

---

Test system: IL-6 (mouse)
Assay: Antiinflammatory activity in C57BL/6 mouse BMDCs assessed as inhibition of LPS-stimulated IL-6 production treated 1 hr before LPS challenge measured 16 hrs post stimulation by ELISA
Conditions: bmdc
pIC50: −log10 of the molar value.
Catalogue of pIC50 values

{"Compound": "C=C(C)[C@@H]1CC[C@]2(C(=O)O)CC[C@]3(C)[C@H](CC[C@@H]4[C@@]5(C)CC[C@H](O)C(C)(C)[C@@H]5CC[C@]43C)[C@@H]12 [BETULINIC ACID]", "Tested Target": "IL-6 (mouse)", "Recorded Metric": "pIC50", "Value Reported": 4.67}
{"Compound": "COc1cc([C@@H]2c3c(cc(OC)c(O)c3OC)C[C@H](CO)[C@H]2CO[C@@H]2O[C@H](CO)[C@@H](O)[C@H](O)[C@H]2O)cc(OC)c1O", "Tested Target": "IL-6 (mouse)", "Recorded Metric": "pIC50", "Value Reported": "< 4.30"}
{"Compound": "COc1cc(-c2cc(=O)c3c(O)cc(O[C@@H]4O[C@H](CO)[C@@H](O)[C@H](O)[C@H]4O[C@@H]4OC[C@](O)(CO)[C@@H]4O)cc3o2)ccc1O", "Tested Target": "IL-6 (mouse)", "Recorded Metric": "pIC50", "Value Reported": "< 4.30"}
{"Compound": "COc1cc([C@@H]2OC[C@@H]3[C@H]2CO[C@H]3c2ccc(O)c(OC)c2)ccc1O [(+)-PINORESINOL]", "Tested Target": "IL-6 (mouse)", "Recorded Metric": "pIC50", "Value Reported": "< 4.30"}

In the following, a different compound is considered.
Find the recorded pIC50 belonging to COc1cc(O)c2c(=O)c(O[C@H]3O[C@H](COC(=O)CC(C)(O)CC(=O)O)[C@@H](O)[C@H](O)[C@H]3O)c(-c3ccc(O[C@@H]4O[C@H](CO)[C@@H](O)[C@H](O)[C@H]4O)c(OC)c3)oc2c1 (some centres not stated) and report it.
< 4.30
